Every entry's value here was drawn from the supplement of paper PMC6897291.

# growth inhibition by drug plus 177Lu-lilotomab satetraxetan per record follows
Test system: RIVA
assayNotes: growth inhibition by drug plus 177Lu-lilotomab satetraxetan (1 - RLU/untreated control) (fraction); higher = stronger inhibition
details: 100 nM; time (day): 4; 177Lu-lilotomab satetraxetan 0.5 ug/ml
Structures can show the parent of a compound that is named as a salt.
Would you mind answering with just the numeric figure?

[
  {
    "compound": "C[C@H](NC(=O)Cc1cc(F)cc(F)c1)C(=O)N[C@@H]1C(=O)N(C)c2ccccc2-c2ccccc21",
    "number": 0.4
  },
  {
    "compound": "CO[C@H]1/C=C\\C=C(/C)C(=O)NC2=CC(=O)C(NCCN(C)C)=C(C[C@@H](C)C[C@H](OC)[C@H](O)[C@@H](C)/C=C(\\C)[C@@H]1OC(N)=O)C2=O [17-DMAG HCl (Alvespimycin)]",
    "number": 0.98
  },
  {
    "compound": "N#CC[C@H](C1CCCC1)n1cc(-c2ncnc3[nH]ccc23)cn1",
    "number": 0.379
  },
  {
    "compound": "CC(=O)Nc1nc(C)c(-c2ccc(Cl)c(S(=O)(=O)NCCO)c2)s1",
    "number": 0.471
  },
  {
    "compound": "Nc1nc(N)c(N=O)c(OCC2CCCCC2)n1",
    "number": 0.426
  },
  {
    "compound": "COc1cc2nc(N3CCCN(C)CC3)nc(NC3CCN(Cc4ccccc4)CC3)c2cc1OC",
    "number": 0.552
  },
  {
    "compound": "CN(C)CCCN=c1c2ccccc2n(C)c2[nH]c(=O)n(C)c(=O)c12",
    "number": 0.592
  },
  {
    "compound": "Cc1ccc(C(=O)N(CCCN)[C@@H](c2oc3cc(Cl)ccc3c(=O)c2Cc2ccccc2)C(C)C)cc1",
    "number": 0.973
  }
]

Quick one: growth inhibition by drug plus 177Lu-lilotomab satetraxetan for O=C(O[C@@H]1Cc2c(O)cc(O)cc2O[C@@H]1c1cc(O)c(O)c(O)c1)c1cc(O)c(O)c(O)c1 [(-)-Epigallocatechin gallate] ?
0.454

Quick one: growth inhibition by drug plus 177Lu-lilotomab satetraxetan for `OC[C@H]1O[C@@H](n2cnc3c2N=CNC[C@H]3O)C[C@@H]1O` ?
0.488

Quick one: growth inhibition by drug plus 177Lu-lilotomab satetraxetan for CCC(C)(C)C(=O)O[C@H]1C[C@@H](C)C=C2C=C[C@H](C)[C@H](CC[C@@H]3C[C@@H](O)CC(=O)O3)[C@H]21 [Simvastatin (Zocor)] ?
0.494

Quick one: growth inhibition by drug plus 177Lu-lilotomab satetraxetan for `CC[C@@H]1C(=O)N(C)c2cnc(Nc3ccc(C(=O)N[C@H]4CC[C@H](N5CCN(CC6CC6)CC5)CC4)cc3OC)nc2N1C(C)C` ?
0.964

Quick one: growth inhibition by drug plus 177Lu-lilotomab satetraxetan for `Cc1ccc(-c2cc(C(F)(F)F)nn2-c2ccc(S(N)(=O)=O)cc2)cc1` ?
0.448

Quick one: growth inhibition by drug plus 177Lu-lilotomab satetraxetan for `NC(=O)c1ccc2nc(-c3ccc(Oc4ccc(Cl)cc4)cc3)[nH]c2c1` ?
0.517

Quick one: growth inhibition by drug plus 177Lu-lilotomab satetraxetan for `CCOc1ccn(-c2ccc(F)cc2)c(=O)c1C(=O)Nc1ccc(Oc2ccnc(N)c2Cl)c(F)c1` ?
0.512

Quick one: growth inhibition by drug plus 177Lu-lilotomab satetraxetan for `Cn1cc(-c2ccc3nnc(C(F)(F)c4ccc5ncccc5c4)n3n2)cn1` ?
0.401

Quick one: growth inhibition by drug plus 177Lu-lilotomab satetraxetan for `COc1cc2nccc(Oc3ccc(NC(=O)NC4CC4)c(Cl)c3)c2cc1C(N)=O` ?
0.44

Quick one: growth inhibition by drug plus 177Lu-lilotomab satetraxetan for `O=C(Nc1cccnc1)N1CCC(Cc2cccc(Oc3ccc(C(F)(F)F)cn3)c2)CC1` ?
0.566

Quick one: growth inhibition by drug plus 177Lu-lilotomab satetraxetan for `CS(=O)(=O)c1cccc(CNc2nc(Nc3ccc4c(c3)CCC(=O)N4)ncc2C(F)(F)F)c1` ?
0.328

Quick one: growth inhibition by drug plus 177Lu-lilotomab satetraxetan for `Cc1ccc([N+](=O)[O-])cc1S(=O)(=O)N(C)/N=C/c1cnc2ccc(Br)cn12` ?
0.854

Quick one: growth inhibition by drug plus 177Lu-lilotomab satetraxetan for Clc1ccc(Nc2nnc(Cc3ccncc3)c3ccccc23)cc1 [Vatalanib dihydrochloride (PTK787)] ?
0.442

Quick one: growth inhibition by drug plus 177Lu-lilotomab satetraxetan for `CCC1=C[C@@H]2CN(C1)Cc1c([nH]c3ccccc13)[C@@](C(=O)OC)(c1cc3c(cc1OC)N(C)[C@H]1[C@@](O)(C(=O)OC)[C@H](OC(C)=O)[C@]4(CC)C=CCN5CC[C@]31[C@@H]54)C2` ?
0.978

Quick one: growth inhibition by drug plus 177Lu-lilotomab satetraxetan for `CS(=O)(=O)N1CCc2c(-c3cnc(N)nc3)nc(N3CCOCC3)nc21` ?
0.434

Quick one: growth inhibition by drug plus 177Lu-lilotomab satetraxetan for `O=C1c2ccccc2-c2nc3nonc3nc21` ?
0.288

###

# growth inhibition by drug alone per record follows
System: U-2932
assayNotes: growth inhibition by drug alone (1 - RLU/untreated control) (fraction); higher = stronger inhibition
details: 10 nM; time (day): 3; 177Lu-lilotomab satetraxetan 0 ug/ml
Would you mind answering with just the numeric figure?

// solved cases for growth inhibition by drug alone follow
[
  {
    "compound": "COc1ccc(COc2cc3oc(=O)c4cc(C(C)O)ccc4c3cc2OC)cc1 (centres undefined)",
    "metricName": "growth inhibition by drug alone",
    "number": 0.0334
  },
  {
    "compound": "COc1cc2nccc(Oc3ccc(NC(=O)C4(C(=O)Nc5ccc(F)cc5)CC4)cc3)c2cc1OC [XL-184 free base (Cabozantinib)]",
    "metricName": "growth inhibition by drug alone",
    "number": 0.15
  },
  {
    "compound": "Cn1cnc([N+](=O)[O-])c1Sc1ncnc2[nH]cnc12",
    "metricName": "growth inhibition by drug alone",
    "number": 0.0201
  }
]

Quick one: growth inhibition by drug alone for `Cc1cccc(-c2[nH]c(C(C)(C)C)nc2-c2ccc3nccnc3c2)n1` ?
0.121

###

System: U-2932
assayNotes: growth inhibition by drug plus 177Lu-lilotomab satetraxetan (1 - RLU/untreated control) (fraction); higher = stronger inhibition
details: 1000 nM; time (day): 6; 177Lu-lilotomab satetraxetan 1 ug/ml
Assign met to entries whose growth inhibition by drug plus 177Lu-lilotomab satetraxetan meets or exceeds 0.2; assign not met to the rest.

Reference set (7 entries):
[
  {
    "compound": "Cc1cnc(Nc2ccc(OCCN3CCCC3)cc2)nc1Nc1cccc(S(=O)(=O)NC(C)(C)C)c1",
    "class": "not met"
  },
  {
    "compound": "FC(F)c1nc2ccccc2n1-c1nc(N2CCOCC2)nc(N2CCOCC2)n1",
    "class": "met"
  },
  {
    "compound": "O=C1c2ccccc2C(=O)c2c(NCCc3ccc(O)cc3)ccc(NCCc3ccc(O)cc3)c21",
    "class": "not met"
  },
  {
    "compound": "CN(C)CCCN=c1c2ccccc2n(C)c2[nH]c(=O)n(C)c(=O)c12",
    "class": "met"
  },
  {
    "compound": "CC(=O)O[C@]1(C(C)=O)CC[C@H]2[C@@H]3C[C@H](C)C4=CC(=O)CC[C@]4(C)[C@H]3CC[C@@]21C [Medroxyprogesterone acetate]",
    "class": "met"
  },
  {
    "compound": "COc1ccc(S(=O)(=O)Nc2cccnc2Nc2ccc(O)cc2)cc1",
    "class": "met"
  },
  {
    "compound": "O=C(O)c1ccc2c(c1)nc(Nc1cccc(Cl)c1)c1ccncc12 [cx-4945 (Silmitasertib)]",
    "class": "not met"
  }
]

We now examine a further compound.
Reported growth inhibition by drug plus 177Lu-lilotomab satetraxetan reaches at least 0.2 for `N#CCNC(=O)c1ccc(-c2ccnc(Nc3ccc(N4CCOCC4)cc3)n2)cc1` ?
met

###

Test system: U-2932
assayNotes: growth inhibition by drug plus 177Lu-lilotomab satetraxetan (1 - RLU/untreated control) (fraction); higher = stronger inhibition
details: 1000 nM; time (day): 4; 177Lu-lilotomab satetraxetan 1 ug/ml
metricName: growth inhibition by drug plus 177Lu-lilotomab satetraxetan
Would you mind answering with just the numeric figure?

// solved cases for growth inhibition by drug plus 177Lu-lilotomab satetraxetan follow
[
  {
    "molecule": "CC[C@@H]1/C=C(\\C)C[C@H](C)C[C@H](OC)[C@H]2O[C@@](O)(C(=O)C(=O)N3CCCC[C@H]3C(=O)O[C@H](/C(C)=C/[C@@H]3CC[C@H](Cl)[C@H](OC)C3)[C@H](C)[C@@H](O)CC1=O)[C@H](C)C[C@@H]2OC",
    "number": 0.321
  },
  {
    "molecule": "C=CCn1c(=O)c2cnc(Nc3ccc(N4CCN(C)CC4)cc3)nc2n1-c1cccc(C(C)(C)O)n1",
    "number": 0.926
  },
  {
    "molecule": "O=C(Nc1ccccc1-c1cn2c(CN3CCNCC3)csc2n1)c1cnc2ccccc2n1",
    "number": 0.171
  },
  {
    "molecule": "CC(C)[C@H](C(=O)Nc1ccc(C(=O)NO)cc1)c1ccccc1",
    "number": 0.969
  }
]

Quick one: growth inhibition by drug plus 177Lu-lilotomab satetraxetan for `CC(C)(C)c1cnc(CSc2cnc(NC(=O)C3CCNCC3)s2)o1` ?
0.966

Quick one: growth inhibition by drug plus 177Lu-lilotomab satetraxetan for `CCOc1cc2ncc(C#N)c(Nc3ccc(OCc4ccccn4)c(Cl)c3)c2cc1NC(=O)/C=C/CN(C)C` ?
0.003

Quick one: growth inhibition by drug plus 177Lu-lilotomab satetraxetan for `C[C@]12CC[C@@H]3c4ccc(O)cc4CC[C@H]3[C@@H]1CCC2=O` ?
0.0438

Quick one: growth inhibition by drug plus 177Lu-lilotomab satetraxetan for O=C(O)CCCc1ccccc1 [4-Phenylbutyrate] ?
0.0642

Quick one: growth inhibition by drug plus 177Lu-lilotomab satetraxetan for `CC(=O)O[C@@]12CO[C@@H]1C[C@H](O)[C@@]1(C)C(=O)[C@H](O)C3=C(C)[C@@H](OC(=O)[C@H](O)[C@@H](NC(=O)OC(C)(C)C)c4ccccc4)C[C@@](O)([C@@H](OC(=O)c4ccccc4)[C@H]21)C3(C)C` ?
0.977

Quick one: growth inhibition by drug plus 177Lu-lilotomab satetraxetan for `COc1ncc(-c2ccc3nccc(-c4ccnnc4)c3c2)cc1NS(=O)(=O)c1ccc(F)cc1F` ?
0.958
